system.tested: IL-17RA/IL17RC dimerization induced by IL-17A (Homo sapiens)
Sequence (Q16552 24-155): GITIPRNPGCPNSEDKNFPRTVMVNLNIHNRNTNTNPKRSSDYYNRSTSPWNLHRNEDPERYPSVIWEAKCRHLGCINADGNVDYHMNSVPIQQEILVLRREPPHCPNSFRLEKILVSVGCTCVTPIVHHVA
test.method.notes: IL-17RA/IL17RC dimerization assay in response to IL-17A (PathHunter Cytokine Receptor Assay)
Type: cell-based
particulars: IL-17A at EC80; read-out: IC50 in IL-17RA/IL7RC dimerization assay
pIC50: −log10 of the molar value. Residues, ends and D or L forms follow the SMILES beside them.
Reported pIC50 by item:

compound	pIC50
CC[C@H](C)[C@H](NC(C)=O)C(=O)N[C@@H](Cc1c[nH]cn1)C(=O)N[C@H](C(=O)N[C@H](C(=O)N[C@H](C(=O)N[C@@H](CC(N)=O)C(=O)N[C@@H](C)C(=O)N[C@@H](CC(=O)O)C(=O)N[C@@H](CC(C)C)C(=O)N[C@@H](Cc1c[nH]c2ccccc12)C(=O)N[C@@H](CC(=O)O)C(=O)N[C@@H](Cc1c[nH]c2ccccc12)C(=O)N[C@H](C(=O)N[C@@H](CC(N)=O)C(=O)N[C@@H](CCCCN)C(N)=O)[C@@H](C)CC)[C@@H](C)CC)[C@@H](C)O)C(C)C [SEQ ID NO: 191] (Ac-IHVTINADLWDWINK-NH2)	> 5.00
CC[C@H](C)[C@H](NC(=O)[C@H](Cc1c[nH]c2ccccc12)NC(=O)[C@H](CC(=O)O)NC(=O)[C@H](Cc1c[nH]c2ccccc12)NC(=O)[C@H](CC(C)C)NC(=O)[C@H](CC(=O)O)NC(=O)[C@H](C)NC(=O)[C@@H]1CCCN1C(=O)[C@@H](NC(=O)[C@@H](NC(=O)[C@@H](NC(=O)[C@H](Cc1c[nH]cn1)NC(=O)[C@H](C)NC(C)=O)C(C)C)[C@@H](C)O)[C@@H](C)CC)C(=O)N[C@@H](CC(N)=O)C(=O)N[C@@H](CCCCN)C(N)=O [SEQ ID NO: 158] (Ac-AHVTIPADLWDWINK-NH2)	> 5.00
CC(=O)N[C@H](C(=O)N[C@@H](Cc1c[nH]cn1)C(=O)N[C@@H](Cc1ccccc1)C(=O)N[C@H](C(=O)N[C@@H](Cc1ccccc1)C(=O)N1CCC[C@H]1C(=O)N[C@@H](CCC(N)=O)C(=O)N[C@@H](CC(=O)O)C(=O)N[C@@H](CC(C)C)C(=O)N[C@@H](Cc1c[nH]c2ccccc12)C(=O)N[C@@H](CC(N)=O)C(=O)N[C@@H](Cc1c[nH]c2ccccc12)C(=O)N[C@H](C(=O)N[C@@H](CCCNC(=N)N)C(=O)N[C@@H](CCCNC(=N)N)C(N)=O)C(C)C)[C@@H](C)O)C(C)C [SEQ ID NO: 127] (Ac-VHFTFPQDLWNWVRR-NH2)	> 6.30
CC[C@H](C)[C@H](NC(=O)[C@H](CO)NC(=O)[C@@H](NC(=O)[C@H](Cc1c[nH]cn1)NC(=O)[C@@H](NC(C)=O)C(C)C)C(C)C)C(=O)N1CCC[C@H]1C(=O)N[C@@H](CCC(N)=O)C(=O)N[C@@H](CCC(=O)O)C(=O)N[C@@H](CC(C)C)C(=O)N[C@@H](Cc1c[nH]c2ccccc12)C(=O)N[C@@H](CCC(=O)O)C(=O)N[C@@H](Cc1c[nH]c2ccccc12)C(=O)N[C@H](C(=O)N[C@@H](CCCNC(=N)N)C(=O)N[C@@H](CCCNC(=N)N)C(N)=O)C(C)C [SEQ ID NO: 230] (Ac-VHVSIPQELWEWVRR-NH2)	> 5.00
CC(=O)N[C@H](C(=O)N[C@@H](CCC(=O)O)C(=O)N[C@@H](Cc1ccccc1)C(=O)N[C@@H](CC(N)=O)C(=O)N[C@@H](Cc1ccccc1)C(=O)N1CCC[C@H]1C(=O)N[C@@H](CCC(N)=O)C(=O)N[C@@H](CCC(N)=O)C(=O)N[C@H](C(=O)N[C@@H](Cc1ccc(O)cc1)C(=O)N[C@@H](CCC(=O)O)C(=O)N[C@@H](Cc1c[nH]c2ccccc12)C(=O)N[C@H](C(=O)N[C@@H](CCCNC(=N)N)C(=O)N[C@@H](CCCNC(=N)N)C(N)=O)C(C)C)C(C)C)C(C)C [SEQ ID NO: 256] (Ac-VEFNFPQQVYEWVRR-NH2)	> 5.00
CC(=O)N[C@H](C(=O)N[C@@H](Cc1c[nH]cn1)C(=O)N[C@H](C(=O)N[C@@H](CO)C(=O)N[C@H](C(=O)N1CCC[C@H]1C(=O)N[C@@H](CCC(N)=O)C(=O)N[C@@H](CCC(=O)O)C(=O)N[C@@H](CC(C)C)C(=O)N[C@@H](Cc1ccc(O)cc1)C(=O)N[C@@H](CCC(=O)O)C(=O)N[C@@H](Cc1c[nH]c2ccccc12)C(=O)N[C@H](C(=O)N[C@@H](CCCNC(=N)N)C(=O)N[C@@H](CCCNC(=N)N)C(N)=O)C(C)C)C(C)C)C(C)C)C(C)C [SEQ ID NO: 232] (Ac-VHVSVPQELYEWVRR-NH2)	> 5.00

QUERY: Quick check: pIC50 on IL-17RA/IL17RC dimerization induced by IL-17A (Homo sapiens), item CC[C@H](C)[C@H](NC(=O)[C@H](Cc1c[nH]c2ccccc12)NC(=O)[C@H](CC(=O)O)NC(=O)[C@H](Cc1c[nH]c2ccccc12)NC(=O)[C@H](CC(C)C)NC(=O)[C@H](CC(=O)O)NC(=O)[C@H](C)NC(=O)[C@@H]1CCCN1C(=O)[C@@H](NC(=O)[C@@H](NC(=O)[C@@H](NC(=O)[C@H](Cc1c[nH]cn1)NC(=O)[C@@H](NC(C)=O)C(C)C)C(C)C)[C@@H](C)O)[C@@H](C)CC)C(=O)N[C@@H](CC(N)=O)C(=O)N[C@@H](CCCCN)C(N)=O [SEQ ID NO: 2] (Ac-VHVTIPADLWDWINK-NH2) ?
RESULT: > 6.70

QUERY: Quick check: pIC50 on IL-17RA/IL17RC dimerization induced by IL-17A (Homo sapiens), item CC[C@H](C)[C@H](NC(C)=O)C(=O)N[C@@H](Cc1c[nH]cn1)C(=O)N[C@H](C(=O)N[C@H](C(=O)N[C@H](C(=O)N1CCC[C@H]1C(=O)N[C@@H](C)C(=O)N[C@@H](CC(=O)O)C(=O)N[C@@H](CC(C)C)C(=O)N[C@@H](Cc1c[nH]c2ccccc12)C(=O)N[C@@H](CC(=O)O)C(=O)N[C@@H](Cc1c[nH]c2ccccc12)C(=O)N[C@H](C(=O)N[C@@H](CCCNC(=N)N)C(=O)N[C@@H](CCCNC(=N)N)C(N)=O)C(C)C)[C@@H](C)CC)[C@@H](C)O)C(C)C [SEQ ID NO: 14] (Ac-IHVTIPADLWDWVRR-NH2) ?
RESULT: > 6.40
